These molecules were tested on SK-OV-3; CC50 is the recorded read-out.
observable: CC50

• C=C1C(=O)O[C@H]2[C@H]1CC/C(COC(=O)NCCN1CCCCC1)=C\CC[C@@]1(C)O[C@@H]21 = > 100 µM
• C=C1C(=O)O[C@H]2[C@H]1CC/C(COC(=O)CCC(=O)N1CCC(C)CC1)=C\CC[C@@]1(C)O[C@@H]21 = > 100 µM
• C=C1C(=O)O[C@H]2[C@H]1CC/C(COC(=O)NC)=C\CC[C@@]1(C)O[C@@H]21 = > 100 µM
• C=C1C(=O)O[C@H]2[C@H]1CC/C(COC(=O)N1CCN(C)CC1)=C\CC[C@@]1(C)O[C@@H]21 = > 100 µM
• C=C1C(=O)O[C@H]2[C@H]1CC/C(COC(=O)N1CCC(F)(F)CC1)=C\CC[C@@]1(C)O[C@@H]21 = 63.8 µM
• C=C1C(=O)O[C@H]2[C@H]1CC/C(COC(=O)NCCO)=C\CC[C@@]1(C)O[C@@H]21 = > 100 µM
